Would you mind telling me the reported melting point of each entry?

// below: answered compounds
### Prompt Would you mind telling me what melting point value was observed for "Nc1ccc(S(=O)(=O)c2cc(-c3cccc([N+](=O)[O-])c3)nc(N3CCCC3)c2)cc1" ?
### Response 249 to 251 °C

### Prompt Would you mind telling me what melting point value was observed for "NS(=O)(=O)c1ccc(-c2noc(-c3cnc4ccc(-c5ccc(Cl)cc5)cn34)n2)s1" ?
### Response 263 °C

### Prompt Would you mind telling me what melting point value was observed for "Cn1c(/C=C/CO)c(-c2ccccc2)c2ccccc2c1=O" ?
### Response 209 °C

### Prompt Would you mind telling me what melting point value was observed for "CCC(=O)Nc1c(-n2cncn2)cnn1-c1c(Cl)cc(C(F)(F)F)cc1Cl" ?
### Response 167 to 169 °C

Could you now look at the following compound, please?
### Prompt Would you mind telling me what melting point value was observed for "COCCOC(=O)NC(=O)CCl" ?
### Response 97 to 99 °C
